- System: Candida albicans
- method: Antifungal activity against Candida albicans MYA2876 by CLSI […] protocol based method
- Assay type: functional

- substance-smiles: "CCOP(=O)(CCCCCCCCn1nnc2c1C(=O)c1ccccc1C2=O)OCC"
  MIC: "> 128 µg/mL"
- substance-smiles: "CCOP(=O)(CCCCn1nnc2c1C(=O)c1ccccc1C2=O)OCC"
  MIC: "> 128 µg/mL"
- substance-smiles: "O=C1c2ccccc2C(=O)c2c1nnn2CCCCCCP(=O)([O-])[O-].[K+].[K+]"
  MIC: "32 to 64 µg/mL"
